- Test system: Hansenula anomala
- Procedure Details: Serial dilution test, Minimum Inhibitory Concentration, Hansenula anomala (HNA)
- Assay type: cell-based
- Run Conditions: total inhibition of mycelial growth, read-out: MIC (HNA)
Observable: MIC (µg/mL)
One number for each entry, in µg/mL.

Example compounds with recorded MIC:
COC(=O)/C=C(/OC)[C@H](C)[C@H](/C=C/c1csc(/C(C)=N\OCc2ccccc2)n1)OC	0.6
COC(=O)/C=C(/OC)[C@H](C)[C@H](/C=C/c1csc(C(C)=O)n1)OC [2:melithiazole C, reference compound]	3

Give MIC for each of the items listed below.
1. CO/N=C(\C)c1nc(/C=C/[C@H](OC)[C@@H](C)/C(=C\C(=O)OC)OC)cs1 [8:(E)-MCM]
2. COC(=O)/C=C(/OC)[C@H](C)[C@H](/C=C/c1csc(C(C)OC)n1)OC (stereo partly shown)

Response:
1. 0.08
2. 0.08
